Source: ChEMBL document CHEMBL4715682

# Test system: J774
# experimentNotes: Cytotoxicity against mouse J774 cells assessed as reduction in cell viability at 32 ug/ml incubated for 24 hrs by MTS assay
# Type: cell-based
# testParameters: j774, 24 h, dose 32 µg/ml

| entrySmiles | Activity |
| --- | --- |
| O=C(Nc1nnc(-c2cccs2)o1)c1ccc(S(=O)(=O)C(F)(F)F)cc1 | Non-Toxic |
| O=C(Nc1nnc(-c2cccs2)o1)c1ccc(S(F)(F)(F)(F)F)cc1 | Non-Toxic |
| O=C(Nc1nnc(-c2cccs2)o1)c1ccc(SC(F)(F)F)cc1 | Non-Toxic |
| O=C(Nc1nnc(-c2cccs2)o1)c1ccc(OC(F)(F)F)cc1 | Non-Toxic |
